Target: OAT3 (Homo sapiens, UniProt Q8TCC7)
Construct: host or cells: HEK293 TransportoCells
Sequence (Q8TCC7 whole entry): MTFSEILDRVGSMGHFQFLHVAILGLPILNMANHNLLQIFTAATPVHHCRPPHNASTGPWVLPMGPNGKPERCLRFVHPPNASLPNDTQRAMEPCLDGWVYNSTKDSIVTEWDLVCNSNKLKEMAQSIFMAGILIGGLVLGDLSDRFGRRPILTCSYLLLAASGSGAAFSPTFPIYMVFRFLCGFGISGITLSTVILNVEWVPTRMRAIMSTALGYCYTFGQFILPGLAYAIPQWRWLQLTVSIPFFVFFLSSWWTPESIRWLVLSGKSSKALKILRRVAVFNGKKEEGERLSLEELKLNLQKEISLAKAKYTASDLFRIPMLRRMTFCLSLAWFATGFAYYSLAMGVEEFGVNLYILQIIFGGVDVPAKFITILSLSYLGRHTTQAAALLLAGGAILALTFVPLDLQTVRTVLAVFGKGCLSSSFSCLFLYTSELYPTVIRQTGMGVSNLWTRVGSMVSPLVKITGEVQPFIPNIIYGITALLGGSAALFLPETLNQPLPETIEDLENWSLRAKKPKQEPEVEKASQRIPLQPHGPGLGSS
Test: OAT3 single concentration inhibition screen in HEK293 cells
Format: cell-based
Settings: human, HEK293 cells expressing OAT3 (with vector control cells), pH 7.4, probe [3H]-estrone 3-sulfate (1 μM); probenecid 300 μM; single concentration screens; read-out: Inhibition of OAT3 by positive control (mean), screen
propertyName: inhibition at 3 min, 300 μM (%)
Answers are plain numbers, in %.

The molecule listed as CCCN(CCC)S(=O)(=O)c1ccc(C(=O)O)cc1 shows inhibition at 3 min, 300 μM equal to 90.6

====

Target: UniProt:Q9Y6L6
Experiment: OATP1B1 inhibition in transporter-expressing HEK293 cells, [3H]-estradiol 17β-D-glucuronide uptake (IC50 determination)
Details: human, HEK293 cells expressing OATP1B1 (with vector control cells), pH 7.4, probe [3H]-estradiol 17β-D-glucuronide (0.02 μM)
Structures can show the parent of a compound that is named as a salt.
propertyName: inhibition at 2 min, 100 μM

Record CO[C@H]1/C=C/O[C@@]2(C)Oc3c(C)c(O)c4c(O)c(cc(O)c4c3C2=O)NC(=O)/C(C)=C\C=C\[C@H](C)[C@H](O)[C@@H](C)[C@@H](O)[C@@H](C)[C@H](OC(C)=O)[C@@H]1C [rifamycin SV, rifamycin SV sodium salt] , field inhibition at 2 min, 100 μM: 96.5%

====

For each entry below, report its IC50 value.
Molecular target: human OATP1B3 (SLCO1B3) (Homo sapiens, UniProt Q9NPD5)
Sequence (Q9NPD5 whole entry): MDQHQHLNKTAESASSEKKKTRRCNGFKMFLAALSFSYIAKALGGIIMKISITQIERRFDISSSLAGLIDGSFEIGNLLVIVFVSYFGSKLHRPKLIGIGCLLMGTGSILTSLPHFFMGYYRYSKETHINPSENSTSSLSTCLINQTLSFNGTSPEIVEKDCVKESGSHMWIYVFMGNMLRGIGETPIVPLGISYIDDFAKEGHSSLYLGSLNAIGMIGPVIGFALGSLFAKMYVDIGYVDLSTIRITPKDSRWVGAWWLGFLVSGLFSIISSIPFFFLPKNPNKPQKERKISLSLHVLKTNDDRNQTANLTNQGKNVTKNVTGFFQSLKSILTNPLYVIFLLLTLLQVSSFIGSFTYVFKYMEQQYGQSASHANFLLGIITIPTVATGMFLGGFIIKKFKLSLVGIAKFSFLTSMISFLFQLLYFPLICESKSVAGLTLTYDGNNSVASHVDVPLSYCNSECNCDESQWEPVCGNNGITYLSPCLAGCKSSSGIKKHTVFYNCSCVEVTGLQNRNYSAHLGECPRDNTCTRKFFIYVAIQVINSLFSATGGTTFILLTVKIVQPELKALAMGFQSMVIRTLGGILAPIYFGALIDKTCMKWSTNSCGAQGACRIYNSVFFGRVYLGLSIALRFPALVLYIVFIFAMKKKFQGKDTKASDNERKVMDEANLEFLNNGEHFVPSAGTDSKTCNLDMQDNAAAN
Test: OATP1B3 inhibition in transporter-expressing HEK293 cells, [3H]-estradiol 17β-D-glucuronide uptake (IC50 determination)
Details: IC50 mean (OATP1B3), OATP1B3-mediated transport of [3H]-estradiol 17β-D-glucuronide (0.02 μM), HEK293; mean (±SD) of three occasions
One number for each entry, in µM.

1) Cc1cccc(C)c1OCC(=O)N[C@@H](Cc1ccccc1)[C@@H](O)C[C@H](Cc1ccccc1)NC(=O)[C@H](C(C)C)N1CCCNC1=O [lopinavir]    5.04

IC50 reading for COC(=O)N[C@H](C(=O)N[C@@H](Cc1ccccc1)[C@@H](O)CN(Cc1ccc(-c2ccccn2)cc1)NC(=O)[C@@H](NC(=O)OC)C(C)(C)C)C(C)(C)C [atazanavir] : 1.86

====

Biological target: human OATP1B1 (SLCO1B1) (Homo sapiens)
Sequence (Q9Y6L6 1-691): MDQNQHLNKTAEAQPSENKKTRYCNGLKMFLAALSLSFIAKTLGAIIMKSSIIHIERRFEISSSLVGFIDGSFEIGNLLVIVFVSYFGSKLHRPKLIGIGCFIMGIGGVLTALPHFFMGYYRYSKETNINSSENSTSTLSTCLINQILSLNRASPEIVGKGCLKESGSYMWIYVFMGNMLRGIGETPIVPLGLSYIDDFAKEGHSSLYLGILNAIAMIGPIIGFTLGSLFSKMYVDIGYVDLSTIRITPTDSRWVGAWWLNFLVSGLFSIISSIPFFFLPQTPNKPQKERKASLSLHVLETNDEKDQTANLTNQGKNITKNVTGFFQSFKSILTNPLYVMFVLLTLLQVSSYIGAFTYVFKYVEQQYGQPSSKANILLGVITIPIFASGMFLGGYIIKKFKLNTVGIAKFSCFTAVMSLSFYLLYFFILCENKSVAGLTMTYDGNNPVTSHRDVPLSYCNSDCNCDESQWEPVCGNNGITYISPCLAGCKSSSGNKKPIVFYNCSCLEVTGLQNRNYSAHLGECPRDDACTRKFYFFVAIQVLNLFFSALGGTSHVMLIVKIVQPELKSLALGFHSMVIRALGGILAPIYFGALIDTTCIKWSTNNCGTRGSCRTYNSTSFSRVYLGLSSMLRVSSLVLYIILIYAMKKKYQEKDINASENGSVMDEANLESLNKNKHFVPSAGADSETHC
Assay: OATP1B1 inhibition in transporter-expressing HEK293 cells, [3H]-estradiol 17β-D-glucuronide uptake (IC50 determination)
Conditions: IC50 mean (OATP1B1), OATP1B1-mediated transport of [3H]-estradiol 17β-D-glucuronide (0.02 μM), HEK293; mean (±SD) of three occasions
Please provide measured IC50 for the entries that follow.
Numeric answer plus unit only.

1. CC(C)CN(C[C@@H](O)[C@H](Cc1ccccc1)NC(=O)O[C@H]1CO[C@H]2OCC[C@H]21)S(=O)(=O)c1ccc(N)cc1    9530 nM
2. Cc1cccc(C)c1OCC(=O)N[C@@H](Cc1ccccc1)[C@@H](O)C[C@H](Cc1ccccc1)NC(=O)[C@H](C(C)C)N1CCCNC1=O    220 nM

Field: next compound
For this compound ( COC(=O)N[C@H](C(=O)N[C@@H](Cc1ccccc1)[C@@H](O)CN(Cc1ccc(-c2ccccn2)cc1)NC(=O)[C@@H](NC(=O)OC)C(C)(C)C)C(C)(C)C ), measured IC50 is 734 nM

====

Kindly state pIC50 for each of the entries shown.
Target: BCRP (Homo sapiens)
Sequence (Q9UNQ0 whole entry): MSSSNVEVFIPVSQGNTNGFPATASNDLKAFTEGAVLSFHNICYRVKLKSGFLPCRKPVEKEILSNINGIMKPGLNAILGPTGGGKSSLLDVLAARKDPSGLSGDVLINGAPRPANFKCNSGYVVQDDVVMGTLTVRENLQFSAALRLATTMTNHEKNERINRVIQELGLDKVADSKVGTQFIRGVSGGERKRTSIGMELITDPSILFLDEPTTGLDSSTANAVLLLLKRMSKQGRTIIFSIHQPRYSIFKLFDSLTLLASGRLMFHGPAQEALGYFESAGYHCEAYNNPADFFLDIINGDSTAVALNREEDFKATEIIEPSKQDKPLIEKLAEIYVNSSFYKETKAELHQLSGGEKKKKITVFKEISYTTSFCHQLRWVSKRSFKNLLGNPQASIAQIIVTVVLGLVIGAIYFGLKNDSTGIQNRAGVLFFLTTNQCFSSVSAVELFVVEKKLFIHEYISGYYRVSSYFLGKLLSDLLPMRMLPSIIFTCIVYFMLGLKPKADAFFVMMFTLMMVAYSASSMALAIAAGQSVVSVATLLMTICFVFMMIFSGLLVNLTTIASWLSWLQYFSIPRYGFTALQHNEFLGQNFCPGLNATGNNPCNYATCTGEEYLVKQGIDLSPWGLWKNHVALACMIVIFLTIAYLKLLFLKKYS
Test: Caco-2 unidirectional (B-A) BCRP inhibition assay, [3H]-estrone 3-sulfate transport (IC50 determination)
Conditions: IC50 mean (BCRP), BCRP-mediated B-A transport of [3H]-estrone 3-sulfate (1 μM), Caco-2; mean (±SD) of occasions; IC50 equates to Ki
One number for each entry, as −log10 of the molar value.

1) Cc1cccc(C)c1OCC(=O)N[C@@H](Cc1ccccc1)[C@@H](O)C[C@H](Cc1ccccc1)NC(=O)[C@H](C(C)C)N1CCCNC1=O    4.81

Would you mind giving pIC50 for every compound in the list below?
1. COC(=O)N[C@H](C(=O)N[C@@H](Cc1ccccc1)[C@@H](O)CN(Cc1ccc(-c2ccccn2)cc1)NC(=O)[C@@H](NC(=O)OC)C(C)(C)C)C(C)(C)C
2. CC(C)CN(C[C@@H](O)[C@H](Cc1ccccc1)NC(=O)O[C@H]1CO[C@H]2OCC[C@H]21)S(=O)(=O)c1ccc(N)cc1

1. 4.37
2. 3.84
